target-or-test-system: Mitogen-activated protein kinase 12 (Homo sapiens, UniProt P53778)
Sequence (P53778 whole entry): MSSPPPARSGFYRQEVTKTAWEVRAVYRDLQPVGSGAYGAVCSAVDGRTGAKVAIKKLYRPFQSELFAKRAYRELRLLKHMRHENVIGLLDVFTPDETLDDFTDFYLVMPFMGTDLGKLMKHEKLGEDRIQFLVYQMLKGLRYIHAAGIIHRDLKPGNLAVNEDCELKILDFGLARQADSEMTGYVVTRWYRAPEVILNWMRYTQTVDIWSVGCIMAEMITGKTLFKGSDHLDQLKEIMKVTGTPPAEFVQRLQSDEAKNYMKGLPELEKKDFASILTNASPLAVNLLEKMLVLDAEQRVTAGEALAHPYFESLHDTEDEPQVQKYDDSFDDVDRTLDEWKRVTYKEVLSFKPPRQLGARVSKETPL
assay-procedure: Inhibitory concentration against p38 gamma
measured-property: IC50

Entry Cc1ccc(C(=O)Nc2ccon2)cc1Nc1ncnc(NC2CCCC2)c1C#N , IC50 reported as > 30 µM

###

target-or-test-system: Tyrosine-protein kinase JAK3 (Homo sapiens, UniProt P52333)
Sequence (P52333 whole entry): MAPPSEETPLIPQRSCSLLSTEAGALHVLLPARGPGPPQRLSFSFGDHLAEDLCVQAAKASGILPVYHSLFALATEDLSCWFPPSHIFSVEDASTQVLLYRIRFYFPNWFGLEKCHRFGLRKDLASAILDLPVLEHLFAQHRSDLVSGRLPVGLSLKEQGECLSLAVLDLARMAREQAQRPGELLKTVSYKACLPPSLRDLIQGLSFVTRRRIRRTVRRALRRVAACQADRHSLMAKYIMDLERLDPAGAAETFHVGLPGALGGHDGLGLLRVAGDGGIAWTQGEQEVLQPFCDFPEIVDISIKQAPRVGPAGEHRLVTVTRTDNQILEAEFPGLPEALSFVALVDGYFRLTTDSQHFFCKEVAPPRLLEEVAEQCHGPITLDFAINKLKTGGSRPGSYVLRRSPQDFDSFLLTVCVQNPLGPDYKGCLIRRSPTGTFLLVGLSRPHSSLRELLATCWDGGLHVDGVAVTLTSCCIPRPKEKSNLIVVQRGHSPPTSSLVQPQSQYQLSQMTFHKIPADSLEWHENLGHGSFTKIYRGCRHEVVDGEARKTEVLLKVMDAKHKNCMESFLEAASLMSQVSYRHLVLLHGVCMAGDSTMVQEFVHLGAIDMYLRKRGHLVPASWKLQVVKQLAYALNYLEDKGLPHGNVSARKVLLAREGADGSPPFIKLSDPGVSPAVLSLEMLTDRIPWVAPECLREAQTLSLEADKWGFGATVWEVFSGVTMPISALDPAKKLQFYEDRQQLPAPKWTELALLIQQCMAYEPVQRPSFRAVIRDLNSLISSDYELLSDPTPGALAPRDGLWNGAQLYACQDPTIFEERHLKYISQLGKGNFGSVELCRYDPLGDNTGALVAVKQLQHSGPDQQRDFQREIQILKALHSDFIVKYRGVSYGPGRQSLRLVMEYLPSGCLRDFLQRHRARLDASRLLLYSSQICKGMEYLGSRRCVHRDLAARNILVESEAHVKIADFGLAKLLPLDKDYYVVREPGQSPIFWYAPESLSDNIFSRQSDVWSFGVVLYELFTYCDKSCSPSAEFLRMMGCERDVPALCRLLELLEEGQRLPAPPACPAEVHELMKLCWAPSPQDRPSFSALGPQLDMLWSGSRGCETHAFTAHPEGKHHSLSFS
pIC50: −log10 of the molar value.
measured-property: pIC50

The value of pIC50 measured for the molecule Cc1ccc(C(=O)Nc2ccon2)cc1Nc1ncnc(NC2CCCC2)c1C#N turned out to be < 4.30

###

target-or-test-system: MAP kinase-activated protein kinase 2 (Homo sapiens)
Sequence (P49137 whole entry): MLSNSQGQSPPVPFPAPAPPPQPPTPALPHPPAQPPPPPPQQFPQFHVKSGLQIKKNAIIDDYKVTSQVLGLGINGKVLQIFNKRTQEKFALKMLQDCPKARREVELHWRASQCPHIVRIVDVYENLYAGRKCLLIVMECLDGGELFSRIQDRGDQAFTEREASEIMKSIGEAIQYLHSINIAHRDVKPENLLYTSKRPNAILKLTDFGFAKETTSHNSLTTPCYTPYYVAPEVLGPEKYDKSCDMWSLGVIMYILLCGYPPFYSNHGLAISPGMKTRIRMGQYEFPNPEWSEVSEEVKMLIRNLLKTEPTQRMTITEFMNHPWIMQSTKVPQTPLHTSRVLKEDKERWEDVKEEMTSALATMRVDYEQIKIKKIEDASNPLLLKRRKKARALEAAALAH
assay-procedure: Inhibitory concentration against MK2
measured-property: IC50

Entry Cc1ccc(C(=O)Nc2ccon2)cc1Nc1ncnc(NC2CCCC2)c1C#N — recorded IC50 = > 50 µM
